experimental protocol: qHTS assay for measurement of the activity of small molecule inhibitors on Zika virus induced Caspase-3 activity in human astrocytoma cells (AID 1224859)
study conditions: SNB-19 ZIKV-induced caspase-3/7, luminescence, 6 h; series mostly up to 45.7 µM
Active and inactive are the calls of the source. Calls follow the shape of the dose curve; as a rule, active = well fitted inhibition curve with a large enough effect; inconclusive = small, poorly fitted or top-dose-only effect; inactive = no such curve, though single readings can be large or run the other way.
Outcome (select one): t for active, f for inactive

INSERT INTO results (compound, cat) VALUES
  ('COCCn1c2c([n+](Cc3cnccn3)c1C)C(=O)c1ccccc1C2=O', 't'),
  ('CC=CC1=C(C(=O)O)N2C(=O)[C@H](NC(=O)[C@H](N)c3ccc(O)cc3)[C@@H]2SC1', 'f'),
  ('C#Cc1cccc(Nc2ncnc3cc(OC)c(OCCCCCCC(=O)NO)cc23)c1', 'f'),
  ('CCN1CCN(Cc2ccc(-c3cc4c(N[C@H](C)c5ccccc5)ncnc4[nH]3)cc2)CC1', 'f'),
  ('C=CCn1c(=O)c2cnc(Nc3ccc(N4CCN(C)CC4)cc3)nc2n1-c1cccc(C(C)(C)O)n1', 'f');

Tell me the recorded outcome of this test for `CC(C)Nc1cc(C(F)(F)F)cc2nc(NC(=O)c3cccnc3)nn12` . f

Would you mind telling me which call this test gave C[C@]12CC[C@H](O)CC1=CCC1C2CC[C@]2(C)C(n3cnc4ccccc43)=CCC12 (some centres not stated) ? f

Answer briefly: the call reported for `CCCCCN(CCC12CC3CC(CC(C3)C1)C2)C(=O)NCCCc1ccncc1` in this assay. f

Would you mind telling me which call this test gave `Cc1[nH]c2ccccc2c1CCNCc1ccc(C=CC(=O)NO)cc1` ? f

Outcome logged for `Cn1c(CNc2ccc(C(=N)N)cc2)nc2cc(C(=O)N(CCC(=O)O)c3ccccn3)ccc21` in this assay: f

Recorded call for `CC=C1NC(=O)[C@H]2CSSCCC=C[C@H](CC(=O)N[C@H](C(C)C)C(=O)N2)OC(=O)[C@H](C(C)C)NC1=O` ? f

Outcome logged for `CCCCN1CCC(CNC(=O)c2c3n(c4ccccc24)CCCO3)CC1` in this assay: f

* * *

experimental protocol: qHTS profiling of the MIPE4 collection as inhibitors of Plasmodium falciparum (DD2) proliferation (AID 743345)
study conditions: P. falciparum Dd2 in erythrocytes, SYBR Green DNA, 72 h; at 28.5 µM (top of the series) unless noted
recorded metric: parasite growth remaining, % of DMSO control (lower = more inhibition) (%)
The reply should contain only the number, in %.

Worked examples, 5 compounds total:
INSERT INTO assay_data (smi, readout_units, assay_result) VALUES
  ('C=C1C(=CC=C2CCC[C@]3(C)[C@@H]([C@H](C)C=C[C@H](C)C(C)C)CC[C@@H]23)C[C@@H](O)C[C@@H]1O', '%', 7.23),
  ('O=C(NC1CCNCC1)c1[nH]ncc1NC(=O)c1c(Cl)cccc1Cl', '%', 11.4),
  ('Cc1ccc(NC(=O)C2(c3ccc4c(c3)OC(F)(F)O4)CC2)nc1-c1cccc(C(=O)O)c1', '%', 6.69),
  ('O=C(C=Cc1c(C(=O)O)[nH]c2cc(Cl)cc(Cl)c12)Nc1ccccc1', '%', 107),
  ('CCN(CC)CCCCNc1ncc2cc(-c3cc(OC)cc(OC)c3)c(NC(=O)NC(C)(C)C)nc2n1', '%', 9.87);

// below: parasite growth remaining, % of DMSO control (lower = more inhibition) requested for another compound
Indicate its recorded parasite growth remaining, % of DMSO control (lower = more inhibition); the compound in question is `Cc1cc(CN2CCN(c3c(Br)cnc4nc(-c5ccc(N6CCN(C)CC6)cc5)[nH]c34)CC2)no1` 6.44

* * *

experimental protocol: Quantitative High-Throughput drug screen in 47 multiple myeloma cell lines against the NCATS MIPE library collection: U266_ATCC cell viability assay (AID 1919864); also: potency is read from the fitted curve at half-maximal effect; nearly all actives have a fitted effect of over 35% in size
study conditions: U266 myeloma viability, CellTiter-Glo ATP luminescence, 48 h; series mostly up to 45.8 µM
Excerpt: PI: Beverly A. Mock Ph.D. Laboratory of Cancer Biology and Genetics, Center for Cancer Research, National Cancer Institute, National Institute of Health, Bethesda, Maryland […] 5; Detector; 425V; Luminescence; Viewlux PerkinElmer. […] 1. […] Briefly, the corresponding myeloma cell lines were screened in 1,536-well plates with 500 cells, 5-uL per well for inhibition of cell viability (assessed by measuring ATP levels with CellTiterGlo). […]
Inconclusive results are not listed. Activity calls are given as the source filed them. Calls follow the shape of the dose curve; as a rule, active = well fitted cell-killing curve with a large enough effect; inconclusive = small, poorly fitted or top-dose-only effect, or effect the other way; inactive = no such curve, though single readings can be large or run the other way.
recorded metric: Potency

Here's what some known entries look like.
INSERT INTO assay_data (smi, assay_result) VALUES
  ('CCN(CC)CCNC(=O)c1ccc2nc(-c3ccccc3)c(-c3ccc(CN4CCC(n5c(=O)[nH]c6ccccc65)CC4)cc3)nc2c1', '8.33 µM (active)'),
  ('CN1CCN(c2ccc3nc(-c4c(N)c5c(F)cccc5[nH]c4=O)[nH]c3c2)CC1', '13.2 µM (active)'),
  ('CC(C)c1cnn2c(NCc3ccccc3)cc(N[C@@H](CO)[C@H](O)CO)nc12', '0.296 µM (active)'),
  ('C=CC(=O)Nc1cc2c(Nc3ccc(F)c(Cl)c3)ncnc2cc1OCCCN1CCOCC1', '18.7 µM (active)'),
  ('Nc1nccc(Oc2ccc(NC(=O)c3c[nH]cc(-c4ccc(F)cc4)c3=O)cc2F)c1Cl', '20.9 µM (active)');

Supply Potency value. Item: `Nc1ncnc2c1c(-c1cnc3[nH]ccc3c1)nn2C1CCCC1` 14.8 µM (active)

Determine from records and report Potency for `COc1cc2nccc(Oc3ccc(NC(=O)C4(C(=O)Nc5ccc(F)cc5)CC4)cc3)c2cc1OC` 20.9 µM (active)

Provide measured Potency value, entry: `O=C(c1ccc(Nc2nccc(-c3cc4ccccc4s3)n2)cc1)N1CCC(N2CCCC2)CC1` 14.8 µM (active)

Entry `CNC(=O)c1ccc(N2C(=S)N(c3cnc(C#N)c(C(F)(F)F)c3)C(=O)C23CCC3)cc1F` needs its Potency filled in; supply it. 0.662 µM (active)

Give the measured Potency for `CN(c1ncccc1CNc1nc(Nc2ccc3c(c2)CC(=O)N3)ncc1C(F)(F)F)S(C)(=O)=O` 9.35 µM (active)

Read the entry `C1=CCOCc2cc(ccc2OCCN2CCCC2)Nc2nccc(n2)-c2cccc(c2)OCC1` and write its reported Potency. 5.26 µM (active)

* * *

experimental protocol: Quantitative High-Throughput drug screen in 47 multiple myeloma cell lines against the NCATS MIPE library collection: OCIMY1_PLB cell viability assay (AID 1918979); also: nearly all actives have a fitted effect of over 35% in size;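 as to viability: 100% = DMSO-only wells and 0% = cell-free media-only wells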
study conditions: OCI-MY1 myeloma viability, CellTiter-Glo ATP, 48 h; series mostly up to 45.8 µM
Records with an inconclusive call do not appear. Calls of active or inactive are those of the source. The call rests on the fitted dose curve; in most records, active means well fitted cell-killing curve with a large enough effect; inconclusive means small, poorly fitted or top-dose-only effect, or effect the other way; inactive means no such curve, though single readings can be large or run the other way.
Your response should consist of one outcome taken from YES = active, NO = inactive

The examples below pair each entry with its known result.
INSERT INTO assay_data (compound, cat) VALUES
  ('O=c1c2ccccc2nc2n1CCc1c-2[nH]c2ccccc12', 'NO'),
  ('CC(C)CC(=O)Nc1n[nH]c2c1CN(C(=O)C1CCN(C)CC1)C2(C)C', 'YES'),
  ('Cc1c(NC(=O)OC[C@@H]2COCCN2)cn2ncnc(Nc3ccc4c(cnn4Cc4cccc(F)c4)c3)c12', 'NO'),
  ('COC(=O)Nc1nc2ccc(C(=O)c3ccc(F)cc3)cc2[nH]1', 'YES'),
  ('c1cc(-c2cnn3cc(-c4ccc(OCCN5CCCCC5)cc4)cnc23)ccn1', 'YES');

How did this test come out for CC[C@@H]1C(=O)N(C)c2cnc(Nc3ccc(C(=O)NC4CCC(N5CCN(CC6CC6)CC5)CC4)cc3OC)nc2N1C(C)C (some centres undefined) ? YES

# fetch the recorded call for `Cc1coc2c1C(=O)C(=O)c1c-2ccc2c1CCCC2(C)C` here YES

Identify the outcome logged in this assay for the compound shown: `CN1CC[C@@H](c2c(O)cc(O)c3c(=O)cc(-c4ccccc4Cl)oc23)[C@@H](O)C1` YES

Answer briefly: the call reported for O=C1CCC[C@@H]2[C@H]3CCC[N+]4([O-])CCC[C@@H](CN12)[C@@H]34 (some centres undefined) in this assay. NO

Answer briefly: the call reported for `COc1ccc(OC)c(-c2nnc3ccc(-c4ccc(OC)c(O[C@@H]5CCOC5)c4)nn23)c1` in this assay. YES

I would be grateful if you could indicate the recorded call for `O=C(O)CCCc1c[nH]c2ccccc12` . NO

* * *

experimental protocol: Quantitative High-Throughput drug screen in 47 multiple myeloma cell lines against the NCATS MIPE library collection: KMS28BM_JCRB cell viability assay (AID 1919874); also: nearly all actives have a fitted effect of over 35% in size
study conditions: CellTiter-Glo ATP, 48 h; series mostly up to 45.8 µM
Records with an inconclusive call do not appear. Activity calls are given as the source filed them. Calls come from the whole dose curve; as a rule, active = well fitted cell-killing curve with a large enough effect; inconclusive = small, poorly fitted or top-dose-only effect, or effect the other way; inactive = no such curve, though single readings can be large or run the other way.
Result category, one only: active, inactive

INSERT INTO assay_data (compound, cat) VALUES
  ('COc1ccc(F)c(F)c1C(=O)c1cnc(NC2CCN(S(C)(=O)=O)CC2)nc1N', 'active'),
  ('NC(=O)Nc1cc(-c2cccc(F)c2)sc1C(=O)N[C@H]1CCCNC1', 'active'),
  ('CC(NCc1ccc2c(c1)nc(NC(=O)c1ccc(-c3cn[nH]c3)s1)n2CC(C)(C)O)C(C)(C)C (stereo unspecified)', 'active'),
  ('CC(=O)OCCN1C(=O)c2c(C)nc3ccc(S(=O)(=O)N4CCOCC4)cc3c2C1=O', 'inactive'),
  ('CN(C)c1nc(Cc2ccc(NC(=O)c3ccc4ccccc4c3)cc2)nc(Cl)c1CC(=O)O', 'inactive');

Consider the additional compound presented here.
Outcome? `Nc1cc(C(F)(F)F)c(-c2cc(N3CCOCC3)nc(N3CCOCC3)n2)cn1` active
